biological target: T1, human ROR2 expressed on the cell surface (human, UniProt Q01974 34-943); assay: flow cytometry, JN DSRCT cells (DSRCT); design: unit not given here
T1 construct: Endogenous ROR2 of human tumour cell lines; also called cell surface ROR2; ROR2 on tumour cell lines
T1 sequence (Q01974 34-943 limits assumed): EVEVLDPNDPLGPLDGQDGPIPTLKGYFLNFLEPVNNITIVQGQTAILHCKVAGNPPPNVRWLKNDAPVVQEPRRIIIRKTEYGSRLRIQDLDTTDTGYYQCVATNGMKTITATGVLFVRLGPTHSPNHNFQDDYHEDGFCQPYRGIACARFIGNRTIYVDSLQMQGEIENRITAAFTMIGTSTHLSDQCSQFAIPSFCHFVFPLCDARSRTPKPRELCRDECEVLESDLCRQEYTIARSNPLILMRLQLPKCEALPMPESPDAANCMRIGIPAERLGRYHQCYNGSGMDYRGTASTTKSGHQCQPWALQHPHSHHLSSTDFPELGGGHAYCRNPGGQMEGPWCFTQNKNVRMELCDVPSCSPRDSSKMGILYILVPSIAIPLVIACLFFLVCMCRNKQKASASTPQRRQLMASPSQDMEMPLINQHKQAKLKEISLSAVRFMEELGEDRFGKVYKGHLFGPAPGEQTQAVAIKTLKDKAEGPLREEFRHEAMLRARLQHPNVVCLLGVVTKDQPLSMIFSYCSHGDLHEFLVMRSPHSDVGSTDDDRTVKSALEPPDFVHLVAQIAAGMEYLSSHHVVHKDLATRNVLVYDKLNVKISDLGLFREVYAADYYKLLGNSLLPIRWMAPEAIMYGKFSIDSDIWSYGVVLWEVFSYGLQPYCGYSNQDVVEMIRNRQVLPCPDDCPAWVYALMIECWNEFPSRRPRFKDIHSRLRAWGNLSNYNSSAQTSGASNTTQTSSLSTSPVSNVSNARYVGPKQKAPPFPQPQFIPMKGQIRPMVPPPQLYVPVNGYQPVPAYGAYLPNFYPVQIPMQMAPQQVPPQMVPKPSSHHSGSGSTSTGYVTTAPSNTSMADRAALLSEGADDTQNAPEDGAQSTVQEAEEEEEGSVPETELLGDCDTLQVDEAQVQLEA
MEASURED PARAMETER: binding intensity
// no unit, no text: just the number

Exam item: Sample ROR2-240 full length human IgG1 antibody (antibody, V domains shown, also called clone #240 IgG1) VH: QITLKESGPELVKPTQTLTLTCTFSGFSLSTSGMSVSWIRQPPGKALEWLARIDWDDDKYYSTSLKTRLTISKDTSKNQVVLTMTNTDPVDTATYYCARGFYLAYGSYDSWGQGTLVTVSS VL: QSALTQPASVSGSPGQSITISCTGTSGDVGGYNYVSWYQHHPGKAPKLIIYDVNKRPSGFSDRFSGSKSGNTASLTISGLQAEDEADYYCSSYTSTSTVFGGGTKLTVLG — what was its binding intensity?
Marked response: 3
